Reported koff values are given for each entry in this list.
Biological target: T1, recombinant human ASM protein (human, UniProt P17405 47-630)
T1 construct: Recombinant human ASM in solution; also called acid sphingomyelinase (ASM) protein
T1 sequence: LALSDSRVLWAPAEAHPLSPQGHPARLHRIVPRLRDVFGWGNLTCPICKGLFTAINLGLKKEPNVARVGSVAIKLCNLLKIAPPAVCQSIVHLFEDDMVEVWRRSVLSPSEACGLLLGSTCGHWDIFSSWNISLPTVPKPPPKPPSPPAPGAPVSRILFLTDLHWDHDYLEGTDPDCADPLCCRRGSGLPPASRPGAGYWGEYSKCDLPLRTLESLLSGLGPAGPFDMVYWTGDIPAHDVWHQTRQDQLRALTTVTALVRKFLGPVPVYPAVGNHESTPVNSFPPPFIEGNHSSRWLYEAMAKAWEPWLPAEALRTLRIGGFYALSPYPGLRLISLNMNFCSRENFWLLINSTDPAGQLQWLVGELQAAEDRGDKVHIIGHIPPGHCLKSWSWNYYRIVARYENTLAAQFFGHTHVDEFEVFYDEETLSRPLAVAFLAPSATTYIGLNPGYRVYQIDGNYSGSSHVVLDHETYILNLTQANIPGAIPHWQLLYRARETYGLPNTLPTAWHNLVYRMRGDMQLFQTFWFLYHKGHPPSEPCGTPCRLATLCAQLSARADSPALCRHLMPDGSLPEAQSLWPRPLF
Experiment: BLI (Octet), antibody on AHC sensor
Could you give me the number in s⁻¹? Just the number is fine.

Reference set (2 entries):
| binder | koff, s⁻¹ |
| --- | --- |
| #9104v-L55 (antibody, human IgG4 S228P, lambda, V domains shown, Full-length IgG, lambda) VH: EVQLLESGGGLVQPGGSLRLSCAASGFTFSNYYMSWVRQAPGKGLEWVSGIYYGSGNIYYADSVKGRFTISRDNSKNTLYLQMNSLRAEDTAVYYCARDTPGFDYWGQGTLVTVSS VL: QSVLTQPPSASGTPGQRVTISCTGSSSNIGNNAVNWYQQLPGTAPKLLIYYDWYRPTGVPDRFSGSKSGTSASLAISGLRSEDEADYYCGAWDYSLSAYVFGGGTKLTVLG | 0.00017 |
| #9104v-L12 (antibody, human IgG4 S228P, lambda, V domains shown, Full-length IgG, lambda) VH: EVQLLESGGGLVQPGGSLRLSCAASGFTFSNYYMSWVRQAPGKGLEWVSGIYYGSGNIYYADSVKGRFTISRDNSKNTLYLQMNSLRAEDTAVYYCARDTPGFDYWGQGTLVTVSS VL: QSVLTQPPSASGTPGQRVTISCTGSSSNIGNNAVNWYQQLPGTAPKLLIYYDIFRPDGVPDRFSGSKSGTSASLAISGLRSEDEADYYCGAWDYSLSAYVFGGGTKLTVLG | 0.000159 |

Turning now to a further binder:
Problem: Entry under review: #9104v-L63 (antibody, human IgG4 S228P, lambda, V domains shown, Full-length IgG, lambda) VH: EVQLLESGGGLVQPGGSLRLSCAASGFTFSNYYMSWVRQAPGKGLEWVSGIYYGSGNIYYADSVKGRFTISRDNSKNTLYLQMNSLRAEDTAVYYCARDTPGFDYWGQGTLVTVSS VL: QSVLTQPPSASGTPGQRVTISCTGSSSNIGNNAVNWYQQLPGTAPKLLIYYDSHRPSGVPDRFSGSKSGTSASLAISGLRSEDEADYYCGAWDYWLGAYVFGGGTKLTVLG . Reported koff?
Result: 0.000255
